# Tested on: SN12C renal
# method.summary: NCI tumour cell line growth inhibition, 48 h
List of GI50 values.

{"query.smiles": "O=[N+]([O-])c1cccc2ccc(N/N=C/c3ccccc3O)nc12", "recorded.metric": "GI50", "result": "> 100 µM"}
{"query.smiles": "O=C(NNc1ccccc1)C(=O)NNc1ccccc1", "recorded.metric": "GI50", "result": "> 100 µM"}
{"query.smiles": "COc1ccc(/C(=C\\C=C(C#N)C#N)Sc2nc3ccccc3s2)cc1", "recorded.metric": "GI50", "result": "7.06 µM"}
{"query.smiles": "CN(C)C(=S)Sc1ccc([N+](=O)[O-])cc1[N+](=O)[O-]", "recorded.metric": "GI50", "result": "3.24 µM"}
{"query.smiles": "CC1CCN(C(=O)OCc2nc3nc(Cl)nc(N4CCOCC4)c3[nH]2)CC1", "recorded.metric": "GI50", "result": "0.865 µM"}

Moving on to the next molecule.
Query: I'd like to know its GI50. The molecule in question is CSc1ccccc1C#C/C=C\C#Cc1ccccc1N
Reply: 8.93 µM

###

# System: CCRF-CEM leukemia
# method.summary: NCI tumour cell line growth inhibition, 48 h
List of TGI values.
Numeric answer only, unit µM assumed.

// below: answered compounds
{"query.smiles": "CN(C)CCNC(=O)c1cccc2ccc(-c3ccc(F)cc3)nc12", "target.under.test": "CCRF-CEM leukemia", "TGI (µM)": 15.8}
{"query.smiles": "NCCc1cc(O)c(O)cc1O", "target.under.test": "CCRF-CEM leukemia", "TGI (µM)": 23.6}

Moving on to the next compound.
Query: I'd like to know its TGI. The compound in question is S=c1[nH]c2c(Cl)c(Cl)c(Cl)c(Cl)c2[nH]1
Reply: 19.5

###

# Test system: MCF7 breast
# method.summary: NCI tumour cell line growth inhibition, 48 h
Criterion: TGI meeting or surpassing 60 µM. Met: class 1. Not met: class 0.

{"query.smiles": "O=S(=O)(Nc1ccc(Cl)cc1Cl)c1ccc(-c2cnc(C3CC3)o2)cc1", "discrete.label": "class 0"}
{"query.smiles": "O=[P@@]1(c2ccccc2)O[C@H](COCc2ccccc2)[C@@H](OCc2ccccc2)[C@H](OCc2ccccc2)[C@H]1NCc1ccccc1", "discrete.label": "class 1"}
{"query.smiles": "CC(=O)NNc1nc(-c2ccc([N+](=O)[O-])cc2)c(C#N)c(=O)n1C", "discrete.label": "class 1"}

Query: Record CC1=C(CO)C2=C(C)C3(CC3)[C@@](C)(O)C(=O)C2=C1 ; criterion: TGI no lower than 60 µM. Met?
Reply: class 0

Query: Another compound: Cc1c2cccc-2c(OCCO)cc2c3ccccc3n(C)c12
Reply: class 0

###

# Tested on: ACHN renal
# method.summary: NCI tumour cell line growth inhibition, 48 h
recorded.metric: TGI

{"molecule": "O=C(Nc1cc(C(F)(F)F)ccc1Cl)c1cccc(NC2=C(Cl)C(=O)N(Cc3ccccc3)C2=O)c1", "TGI": "> 100 µM"}
{"molecule": "CS(=O)(=O)Nc1cc(-c2ccc3ncnc(Nc4c(Cl)ccc5c4OCO5)c3c2)cnc1Cl", "TGI": "> 48.1 µM"}
{"molecule": "C=CCc1ccc(O)c(-c2ccc(O)c(CC=C)c2)c1", "TGI": "30.6 µM"}
{"molecule": "C[Si](C)(C)/C(Br)=C\\CCN1C(=O)CCC1=O", "TGI": "> 100 µM"}
{"molecule": "COc1cccc2c1C(=O)c1c(O)c3c(c(O)c1C2=O)C[C@@](O)(/C(C)=N/NC(=O)c1ccc(Cl)cc1)C[C@@H]3OC1CC(N)C(O)C(C)O1 (stereo not given in full)", "TGI": "1.43 µM"}
{"molecule": "COc1cc(/C=C/C(=O)c2cccc(-n3cc(-c4ccc(Cl)cc4)[nH]c3=O)c2)ccc1O", "TGI": "4.95 µM"}

Moving on to the next molecule.
Query: I'd like to know its TGI. The molecule in question is C=CCC1(CN(C)C)CC/C(=C\c2ccc(Cl)cc2)C1=O (stereo not given)
Reply: > 100 µM
